experiment: Solubility in PET tested medium
Assay type: physicochemical
testSettings: PET assay medium, phosphate buffer pH 7.2, DMSO up to 4%
metric: solubility in tested medium (PET experiments)

The following compounds have reported results that may help.
INSERT INTO measurements (smilesinput, testvalue) VALUES
  ('O=C(Nc1ccccc1F)c1cccc2ccccc12', 'precipitation'),
  ('O=C(Nc1ccccc1Br)c1cccc2ccccc12', 'precipitation'),
  ('Cc1ccc(NC(=O)c2cccc3ccccc23)cc1', 'limited solubility'),
  ('O=C(Nc1cccc(Br)c1)c1cccc2ccccc12', 'limited solubility'),
  ('O=C(Nc1cccc([N+](=O)[O-])c1)c1cccc2ccccc12', 'limited solubility'),
  ('O=C(Nc1ccc(F)cc1)c1cccc2ccccc12', 'precipitation');

solubility in tested medium (PET experiments) reading for "O=C(Nc1ccccc1C(F)(F)F)c1cccc2ccccc12" : precipitation

// solubility in tested medium (PET experiments) value for "O=C(Nc1ccccc1Cl)c1cccc2ccccc12" : precipitation

Lab book: solubility in tested medium (PET experiments) of "O=C(Nc1ccc(Br)cc1)c1cccc2ccccc12" noted as limited solubility

Data point: "O=C(Nc1ccccc1[N+](=O)[O-])c1cccc2ccccc12" ; solubility in tested medium (PET experiments) = limited solubility
